Assay: Plasma stability assay, rat plasma
Assay type: in vitro ADME
Particulars: 10 μM, 37° C., 1440 min
Criterion: % remaining at time point strictly under 40%. Met: y. Not met: n.

- Smi: "CCCCCCCCCCCCCCC(=O)Oc1ccc2c3c1O[C@H]1C(=O)CC[C@@]4(O)C(C2)N(CC2CC2)CC[C@]314"
  Answer label: "y"
- Smi: "C=C1CC[C@@]2(O)C3Cc4ccc(OC(=O)OCCCCCCCC)c5c4[C@@]2(CCN3CC2CC2)[C@H]1O5"
  Answer label: "y"
- Smi: "C=C1CC[C@@]2(O)C3Cc4ccc(OC(=O)OCCCCCCCCCCCCCCCC)c5c4[C@@]2(CCN3CC2CC2)[C@H]1O5"
  Answer label: "y"
- Smi: "C=C1CC[C@@]2(O)C3Cc4ccc(OC(=O)CCCCCCC/C=C/CCCCCCCC)c5c4[C@@]2(CCN3CC2CC2)[C@H]1O5"
  Answer label: "y"
- Smi: "CCCCCCCCCCCCCCCCCCCCCC(=O)Oc1ccc2c3c1O[C@H]1C(=O)CC[C@@]4(O)C(C2)N(CC2CC2)CC[C@]314"
  Answer label: "n"
- Smi: "C=C1CC[C@@]2(O)C3Cc4ccc(OC(=O)OCCCCCCCCCCCCCC)c5c4[C@@]2(CCN3CC2CC2)[C@H]1O5"
  Answer label: "n"
- Smi: "CCCCCCCCOC(=O)Oc1ccc2c3c1O[C@H]1C(=O)CC[C@@]4(O)C(C2)N(CC2CC2)CC[C@]314"
  Answer label: "y"
- Smi: "CCCCCCCCCCCCCC(=O)Oc1ccc2c3c1O[C@H]1C(=O)CC[C@@]4(O)C(C2)N(CC2CC2)CC[C@]314"
  Answer label: "y"
- Smi: "C=C1CC[C@@]2(O)C3Cc4ccc(OC(=O)OCCCCCCCCCCCC)c5c4[C@@]2(CCN3CC2CC2)[C@H]1O5"
  Answer label: "y"
- Smi: "C=C1CC[C@@]2(O)C3Cc4ccc(OC(=O)CCCCCCCCCCCCCCCCCCCCC)c5c4[C@@]2(CCN3CC2CC2)[C@H]1O5"
  Answer label: "n"
